tested on: keratinocytes, non tumoral cells; test: MTS cell viability, keratinocytes (Example 2); assay type: cell-based; conditions: Keratinocyte, Keratonicytes, MTS on 3rd day
experimental readout: IC50 (µM)
Field format: number, assumed µM, no unit text.

In: Input CCCCCCCC(=O)/C(C)=C/C(Cc1cc(C(=O)CCCCCCC)cc(Cc2cc(C(=O)CCCCCCC)cc(Cc3cc(C(=O)CCCCCCC)cc(CC)c3OP(=O)(O)O)c2O)c1OP(=O)(O)O)=C(\C)O , output reported IC50.
Out: 46

* * *

System: HL-60 promyelocytary acute leukaemia cells
Experiment: MTS cell viability, HL-60 (Example 2)
Format: cell-based
Conditions: Homo sapiens; HL-60, MTS on 3rd day
Method: The cells (0.2×10^6/ml) were incubated in a sterile fashion in 100 μl of culture medium (RPMI-1640 supplemented with 10% foetal calf serum, penicillin, streptomycin and amphotericin B) at day DO with variable quantities (from […]) of C4diP, tBuC4diP or C8C4diP at 37° C. and 5% CO2 in a water-saturated atmosphere. […] The anticancerous effect of C4diP, tBuC4diP and C8C4diP is evaluated by measuring cell viability as a function of variable quantities of these compounds. […]
experimental readout: pIC50
The value called pIC50 is obtained by taking minus log10 of the concentration in mol/L.

In: Input CCCCCCCC(=O)/C(C)=C/C(Cc1cc(C(=O)CCCCCCC)cc(Cc2cc(C(=O)CCCCCCC)cc(Cc3cc(C(=O)CCCCCCC)cc(CC)c3OP(=O)(O)O)c2O)c1OP(=O)(O)O)=C(\C)O , output reported pIC50.
Out: 3.00
